So I've got IC50 readings for msAPAH (Marinobacter subterrani, UniProt A0A0J7JFD7), take a look.
quantity_name: IC50 (µM)

Example cases with answers are listed next.
>  <compound>
NCCCNCCCCCC(=O)NO

>  <IC50 [µM]>
470

$$$$
>  <compound>
NCCCCCCCC(=O)NO [Inhibitor 5, 8-amino-N-hydroxyoctanamide]

>  <IC50 [µM]>
380

$$$$

A: NCCCCCC(=O)NO [Inhibitor 4, 6-amino-N-hydroxyhexanamide]
B: NCCCNCCCCCS [Inhibitor 3, 5-[(3-aminopropyl)amino]pentane-1-thiol]
Asked: Out of A and B , name the one with the higher IC50. Bench note: the answer is the label of the chosen record.
Given back: A
(A: 410 µM, B: 160 µM)
